Entries annotated with measured pIC50
Tested Target: human carbonic anhydrase IX (CAIX) (human, UniProt Q16790 38-459)
Test Protocol: FACS competition, HT-29 cells, tracer 3BP-2776; pIC50 category A: >8.0
Starred links: 1 amine or outer side, 2 acyl side, 3 side chain; linkers in the order of their positions; H or OH if unused. Positions of bridges follow the written chain, without caps; N, C: chain ends. Non-standard residues stand in square brackets, D forms with d. Primed or numbered codes have the meaning given here. *: point of attachment. Aph(SaPr) = 4-amino-L-phenylalanine, ring amine acylated by 3-sulfamoylpropanoic acid, NS(=O)(=O)CCC(=O)Nc1ccc(C[C@H](N[*:1])C(=O)[*:2])cc1; Phe(3-NHCO(CH2)3SO2NH2) = N[C@@H](Cc1cccc(NC(=O)CCCS(N)(=O)=O)c1)C(=O)O; DOTA = O=C(O)CN1CCN(CC(=O)O)CCN(CC(=O)*)CCN(CC(=O)O)CC1; mXylylene = c1cc(C[*:1])cc(C[*:2])c1; PPAc″ = not defined here; Dap = NC[C@H](N)C(=O)O; Rni = not defined here

Study these solved cases before continuing.
| Binder | pIC50 |
| --- | --- |
| {DOTA-PPAc″}-RCE[dP]D[Phe(3-NHCO(CH2)3SO2NH2)]LTWSC-NH2 (linker 2-11 via mXylylene; reading uncertain) [3BP-4451] | > 8 pic50 |
| {DOTA-Rni}-YCE[dP]D[Phe(3-NHCO(CH2)3SO2NH2)]LTWSC-NH2 (linker 2-11 via mXylylene; reading uncertain) [3BP-4455] | > 8 pic50 |

In the following, a different binder is considered.
**Q:** Data request, read-out pIC50, for {DOTA}-ECE[dP]D[Aph(SaPr)]LTW[Dap]C-NH2 (lactam 1-10; linker 2-11 via mXylylene; SMILES CC(C)C[C@@H]1NC(=O)[C@H](Cc2ccc(NC(=O)CCS(N)(=O)=O)cc2)NC(=O)[C@H](CC(=O)O)NC(=O)[C@H]2CCCN2C(=O)[C@H](CCC(=O)O)NC(=O)[C@@H]2CSCc3cccc(c3)CSC[C@@H](C(N)=O)NC(=O)[C@H](CNC(=O)CC[C@H](NC(=O)CN3CCN(CC(=O)O)CCN(CC(=O)O)CCN(CC(=O)O)CC3)C(=O)N2)NC(=O)[C@H](Cc2c[nH]c3ccccc23)NC(=O)[C@H]([C@@H](C)O)NC1=O) [3BP-4505]
**A:** > 8 pic50
